- target.entity: T1, Human PAR-2 on cells (human, UniProt P55085 26-397)
- T1 construct: also called HEK-PAR-2 (#3); human PAR-2 transfected HEK293 cells
- T1 sequence: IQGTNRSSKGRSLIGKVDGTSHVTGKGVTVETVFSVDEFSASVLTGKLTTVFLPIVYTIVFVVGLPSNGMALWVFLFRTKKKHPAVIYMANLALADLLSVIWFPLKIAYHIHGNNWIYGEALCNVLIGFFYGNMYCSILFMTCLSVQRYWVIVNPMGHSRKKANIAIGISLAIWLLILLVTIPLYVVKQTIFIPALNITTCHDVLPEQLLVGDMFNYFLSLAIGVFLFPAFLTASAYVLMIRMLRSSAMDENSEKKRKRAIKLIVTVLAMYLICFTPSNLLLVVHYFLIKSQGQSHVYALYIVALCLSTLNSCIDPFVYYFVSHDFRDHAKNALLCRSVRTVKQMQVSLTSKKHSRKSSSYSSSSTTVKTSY
- test.summary: binding of Fab to PAR-2 transfected HEK cells (HEK-PAR-2 #3)
endpoint: EC50 (nM)
One number for each entry, in nM.

{"binder": "Ab4994 Fab (Fab, V domains shown, Fab) VH: QVELVESGGGLVQPGGSLRLSCAASGFTFSSYAMNWVRQAPGKGLEWVSAISYSGHLTGYADSVKGRFTISRDNSKNTLYLQMNSLRAEDTAVYYCARIQNDPMDVWGQGTLVTVSS VL: DIELTQPPSVSVAPGQTARISCSGDNLGKKYVQWYQQKPGQAPVLVIYDDSNRPSGIPERFSGSNSGNTATLTISGTQAEDEADYYCSSWDVGSDGWVFGGGTKLTVLG", "EC50 [nM]": 1.9}

Next binder, please.
q: Data request, read-out EC50, for Ab5006 Fab (Fab, V domains shown, Fab) VH: QVELVESGGGLVQPGGSLRLSCAASGFTFSSYAMNWVRQAPGKGLEWVGAISFDGMLTGYADSVKGRFTISRDNSKNTLYLQMNSLRAEDTAVYYCARIQNDPMDVWGQGTLVTVSS VL: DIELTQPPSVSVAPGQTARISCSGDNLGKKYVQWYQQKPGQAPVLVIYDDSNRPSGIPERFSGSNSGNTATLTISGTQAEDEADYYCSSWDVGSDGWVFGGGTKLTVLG
a: 11.9
